Provenance of the data: PubChem BioAssay AID434947

- procedure-details: ADP-Glo luciferase signal interference – biochemical, luminescence, cell-free, homogeneous, artefact control for GSK3beta inhibitor project, dose response (AID 434947);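 note: kinase-free counter screen of ADP-Glo detection reagents for GSK3beta hits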
- condition-notes: Cell-free ADP-Glo reagents, 5 uM ADP
Hit rate of the full screen: of about 2,200 compounds, about 15 (0.7%) were called active.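 Rule for the calls: active = fitted half-maximal concentration for loss of luminescence signal no more than a set limit of log units above the top tested concentration; inconclusive = flat fit with 30 to 70% signal loss, or invalid fit; inactive = half-maximal concentration above that set limit.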 This is one part of a sample in which actives are shown more often than they occur.
Please state which outcome applies, choosing from active, inactive

CCCCn1nc(NC(=O)CCC)c2cc3cc(OC)ccc3nc21 | inactive
N#Cc1ccc(CSc2nnc(-c3ccncc3)o2)cc1 | inactive
NS(=O)(=O)c1ccc(CCNC(=O)CSc2nc3ccsc3c(=O)n2C2CC2)cc1 | inactive
Cc1ccc(C(=O)O/N=C(\N)c2ccccn2)c(C)c1 | active

Request: What did this assay record as the result for `CCc1ccc(/C=N/NC(=O)c2nnn(-c3nonc3N)c2CN2CCc3ccccc32)cc1` ?
Result: inactive

Request: Recorded test outcome, item `COc1cccc(/C=N/Nc2cc(Cl)nc(C)n2)c1O`
Result: inactive

Request: Which outcome was assigned to `COc1ccc(C(=O)c2ccsc2N)cc1` in this test?
Result: inactive

Request: Recorded test outcome, item CC1(C)CC2CC(C)(CN2S(=O)(=O)c2ccc(C(=O)Nc3ccc(Cl)c(S(=O)(=O)N4CCOCC4)c3)cc2)C1 (stereo unspecified)
Result: inactive

Request: So what was the verdict on `Cc1cc([N+](=O)[O-])c(C)cc1-c1ccc(/C=N/n2cnnc2)o1` in this test?
Result: inactive

Request: What did this assay record as the result for `Cc1nc(NCCCn2ccnc2)c2ccccc2n1` ?
Result: inactive

Request: Test call for this molecule, please: `CCn1c(SCC(=O)Nc2ccc(Cl)cc2)nnc1C1CC1`
Result: inactive

Request: Name the outcome recorded for CC(OC(=O)c1nsc(Cl)c1Cl)C(=O)NCc1ccco1 (stereo unspecified) in the assay.
Result: inactive

Request: Would you mind telling me which call this test gave `O=c1c(O[C@@H]2O[C@H](CO)[C@@H](O)[C@H](O)[C@H]2O)c(-c2ccc(O)c(O)c2)oc2cc(O)cc(O)c12` ?
Result: inactive
